- System: CCRIS mutagenicity, Ames/micronucleus/aberration tests
- Test description: CCRIS mutagenicity studies
- Measurement setup: Test System: AMES SALMONELLA TYPHIMURIUM; Strain/Indicator: TA100; Metabolic Activation: RAT, LIVER, S-9, AROCLOR 1254; Method: PREINCUBATION
Activity calls are given as the source filed them. The rule behind the calls is not given here.
Measurement name: mutagenic call

* NC(=O)CC1CO1 (stereo unspecified) | active; positive
* CC(C)NCC(O)c1ccc(O)c(O)c1 (stereo unspecified) | inactive; negative
* ClC=C(Cl)Cl | inactive; negative
* OCc1ccccc1 | inactive; negative
* C1=COc2c(c3cc4ccccc4cc3c3ccccc23)C=C1 | active; positive
* CC(O)CN(CC(C)O)N=O (stereo unspecified) | active; positive
* Oc1ccc2c3cc4ccccc4cc3c3ccccc3c2c1O | active; positive
* Oc1ccc(-c2ccc(O)cc2)cc1 | inactive; negative
* Fc1cccc2cccnc12 | active; positive
* C/C=C\C(=O)O[C@@H]1C[C@H]2O[C@@H]3C=C(C)C(=O)C[C@]3(C)[C@]1(C)[C@]21CO1 | inactive; negative
* CC(Cl)CCCC(Cl)CCCC(Cl)CCCC(Cl)CCCC(Cl)CCCC(Cl)CCCl (stereo unspecified) | inactive; negative
* Cc1ccc2nc(N)[nH]c2c1 | inactive; negative
* CCCCOC(=O)c1ccc(N)cc1 | inactive; negative
* O=NN1CSCC1C(=O)O (stereo unspecified) | inactive; negative
* Cc1cc(N=Nc2c(O)ccc3ccccc23)c(S(=O)(=O)O)cc1Cl | inactive; negative
* Nc1ccc(NCCO)c([N+](=O)[O-])c1 | active; positive
* CC1=CC[C@H]2C(C)=CC[C@@H](C(C)C)[C@@H]2C1 | inactive; negative
* Cc1ccccn1 | inactive; negative
* O=[N+]([O-])c1ccccc1CBr | inactive; negative
* c1ccc2nccnc2c1 | inactive; negative
* CCCC(=O)OCc1cccc([N+](=O)[O-])c1 | inactive; negative
* CC(=O)c1c(C)c([N+](=O)[O-])c(C(C)(C)C)c([N+](=O)[O-])c1C | inactive; negative
* CC1=C(O)C(=O)CC1 | inactive; negative
* Fc1ccc2ncccc2c1 | active; positive
* O=C/C=C/c1ccccc1 | inactive; negative
* OC[P+](CO)(CO)CO | inactive; negative
* COc1ccc2c(c1)nc(N)n2C | active; positive
* C=CC(=O)OCCCCCC | inactive; negative
* Fc1ccnc2ccccc12 | active; positive
* CCC(C)C=O (stereo unspecified) | inactive; negative
* CN=C=O | inactive; negative

----------
- Tested on: CCRIS mutagenicity, Ames/micronucleus/aberration tests
- Test description: CCRIS mutagenicity studies
- Measurement setup: Test System: Mouse lymphoma; Strain/Indicator: L5178Y (tk+/tk-); Metabolic Activation: Rat, Liver, S-9, Aroclor 1254; Method: Suspension/plate
The source made the active and inactive calls. How the calls were made is not given here.
Outcomes: 1 (yes) = active, 0 (no) = inactive

- CC1(C)[C@@H]2CC[C@@]1(C)C(=O)C2=O: 0 (no)
- COc1ccccc1/C=C/C=O: 1 (yes)
- O.O.O.O.O.O.O.[Cl-].[Cl-].[Cl-].[Fe+3]: 0 (no)
- COCOC: 0 (no)
- O=C(O)CN(CCN(CC(=O)O)Cc1ccccc1O)Cc1ccccc1O: 1 (yes)
- Clc1cc(Cl)nc(Cl)n1: 1 (yes)
- CCN(Cc1cccc(S(=O)(=O)O)c1)c1ccc(C(=C2C=CC(=[N+](CC)Cc3cccc(S(=O)(=O)O)c3)C=C2)c2ccc(O)cc2S(=O)(=O)[O-])cc1: 0 (no)
- O=C(/C=C/c1ccccc1)OC/C=C/c1ccccc1: 1 (yes)
- COc1cc2c(cc1O)CCN[C@]21CS[C@@H]2c3c(OC(C)=O)c(C)c4c(c3[C@H](COC1=O)N1[C@@H]2[C@H]2c3c(cc(C)c(OC)c3O)C[C@@H]([C@@H]1O)N2C)OCO4: 1 (yes)
- Nc1n[nH]c(=S)s1: 0 (no)
- O=CC(=O)c1ccccc1: 0 (no)
- CC(=O)CC(C)(C)O: 0 (no)
- CC/C=C/C=C/C=C/C=C/C=C/OC[C@@H](O)CO: 0 (no)

----------
- System: CCRIS mutagenicity, Ames/micronucleus/aberration tests
- Test description: CCRIS mutagenicity studies
- Measurement setup: Test System: AMES SALMONELLA TYPHIMURIUM; Strain/Indicator: TA98; Metabolic Activation: HAMSTER, LIVER, S-9, AROCLOR 1254; Method: STANDARD PLATE
Activity calls are given as the source filed them. No rule for the calls is given here.
Classes used: active, inactive

* CCOC(=O)C(Cl)C(C)=O (configuration not stated) | inactive
* CCCCCCCCCCCCS | inactive
* O=C/C=C/c1ccccc1 | inactive
* CC(C)CCCCCCOC(=O)CCCCC(=O)OCCCCCCC(C)C | inactive
* COc1cc2c(cc1O)CCN[C@]21CS[C@@H]2c3c(OC(C)=O)c(C)c4c(c3[C@H](COC1=O)N1[C@@H]2[C@H]2c3c(cc(C)c(OC)c3O)C[C@@H]([C@@H]1O)N2C)OCO4 | active
* Nc1ccc2c(c1)C(=O)c1ccccc1C2=O | active
* Cc1cc(S(=O)(=O)O)c(N)cc1Cl | active
* Cc1cc(S(=O)(=O)O)ccc1N | inactive
* CCN(Cc1cccc(S(=O)(=O)O)c1)c1ccc(C(=C2C=CC(=[N+](CC)Cc3cccc(S(=O)(=O)[O-])c3)C=C2)c2ccc(S(=O)(=O)O)cc2)cc1 | active
* CN=C=O | inactive
* Nc1ccccc1 | inactive
* CCCCOC(=O)CC(CC(=O)OCCCC)(OC(C)=O)C(=O)OCCCC | inactive
* COc1ccccc1/C=C/C=O | inactive
* CC(=O)c1ccc(Cl)c(Cl)c1Cl | active
* c1ccc2nccnc2c1 | inactive
* NC(=Nc1ccccc1)Nc1ccccc1 | active
* Clc1cc(Cl)nc(Cl)n1 | inactive
* O=C(/C=N/O)Nc1ccccc1 | inactive
* CCOc1ccc(NC(C)=O)cc1 | inactive
* OCCCc1ccccc1 | inactive
* CC(=O)CC(C)(C)O | inactive
* [Cl][Cr]([Cl])[Cl] | inactive
* CC1(C)COC1=O | inactive
* O=c1oc2cc(O)ccc2c2oc3cc(O)ccc3c12 | inactive
* Clc1nc2ccccc2nc1Cl | inactive
* Cc1ccc(N=Nc2ccc(N(CCO)CCO)cc2)cc1 | inactive
* COc1cc(CNC(=O)CCCC/C=C/C(C)C)ccc1O | inactive
* CC(=O)C1(c2ccccc2)CCNCC1 | inactive
* CC1(C)[C@@H]2CC[C@@]1(C)C(=O)C2=O | inactive
* Nc1n[nH]c(=S)s1 | inactive
* O=CC(=O)c1ccccc1 | active
* Nc1ccc(S(N)(=O)=O)cc1 | inactive

----------
- Tested on: CCRIS mutagenicity, Ames/micronucleus/aberration tests
- Test description: CCRIS mutagenicity studies
- Measurement setup: Test System: AMES SALMONELLA TYPHIMURIUM; Strain/Indicator: TA98; Metabolic Activation: NONE; Method: STANDARD PLATE
Activity calls are given as the source filed them. How the calls were made is not given here.
Classes used: yes (1) for active, no (0) for inactive

• Cc1ccc(C)c(C)c1C = no (0)
• Cc1cc(-c2ccccc2)cc(C)c1N = no (0)
• Nc1ccc2c(c1)[nH]c1ccccc12 = yes (1)
• C[C@]12CCC=C(C=O)[C@@]1(C=O)C2 = yes (1)
• Cc1ccc(N=Nc2c(O)ccc3ccccc23)cc1C = no (0)
• C1=CC23CCCC2(C=C1)O3 (configuration not stated) = no (0)
• O=NC1=Cc2nc3ccccn3c2NC1 = yes (1)
• CC(C)(c1ccc(OCC(O)CO)cc1)c1ccc(OCC(O)CO)cc1 (configuration not stated) = no (0)
• CC(=O)Nc1ccc(OC(=O)c2ccccc2OC(C)=O)cc1 = no (0)
• OCCCc1ccccc1 = no (0)
• CC/C=C/C=C/C=C/C=C/C=C/OC[C@@H](O)CO = yes (1)
• CC(=O)OCc1c2ccccc2c(C)c2ccccc12 = yes (1)
• C=CCc1[c-]cccc1.C=CCc1[c-]cccc1.[Pt+2].c1ccc(P(c2ccccc2)c2ccccc2)cc1 = yes (1)
• C=CC(=O)OCCCCCC = no (0)
• COc1ccc(NC(=O)c2csc([N+](=O)[O-])c2)cc1 = yes (1)
• Cc1ccc(C)c2c3c(ccc12)C(O)C(O)C1OC31 (configuration not stated) = yes (1)
• O=S(=O)(Oc1ccc(Cl)c(Cl)c1)c1cccc2cccnc12 = no (0)
• COC1=CC(=O)c2nc(C)c3c([nH]c4ccccc43)c2C1=O = no (0)
• CN(C)P(=O)(N(C)C)N(C)C = no (0)
• COc1ccccc1/C=C/C=O = no (0)
• Cc1cccc(N=Nc2c(O)ccc3ccccc23)c1C = no (0)
• CC(=O)CC(C)(C)O = no (0)
• CCCCOC(=O)CC(CC(=O)OCCCC)(OC(C)=O)C(=O)OCCCC = no (0)
• Nc1ccc(/C=C/c2ccc(Cl)cc2)cc1 = no (0)
• O=C1c2ccccc2-c2cc([N+](=O)[O-])ccc21 = yes (1)
• O=c1[nH]c(=O)n([C@H]2C[C@H](O)[C@@H](CO)O2)cc1/C=C/Br = no (0)
• Nc1ccc(S(N)(=O)=O)cc1 = no (0)
• CC(=O)OCc1cocc2c(C=O)ccc1-2 = yes (1)
• CC1(C)CC[C@]2(C(=O)O)CC[C@]3(C)C(=CC[C@@H]4[C@@]5(C)C[C@H](O)[C@H](O[C@@H]6O[C@H](CO)[C@@H](O)[C@H](O)[C@H]6O)C(C)(C(=O)O)C5CC[C@]43C)[C@H]2C1 (some centres not stated) = no (0)
• O=[N+]([O-])c1cc2c3c(c1)CCc1cc([N+](=O)[O-])cc(c1-3)CC2 = yes (1)
• Cc1c(/C=N/OCc2ccc(Cl)cc2Cl)c2cc([N+](=O)[O-])ccc2n1Cc1ccc(Cl)cc1 = no (0)
• ClCc1c2ccccc2c2ccc3cccc4ccc1c2c43 = no (0)
• c1ccc2nccnc2c1 = no (0)
• [Ag][I] = no (0)
• Nc1ccc(-c2ccc(N)c(O)c2)cc1O = no (0)
• CCOC(=O)C(Cl)C(C)=O (configuration not stated) = no (0)
• CN(C)CCCNc1c2ccccc2nc2c([N+](=O)[O-])cccc12 = yes (1)
• C=Cc1ccccn1 = no (0)
• O=C(/C=C/c1cccc([N+](=O)[O-])c1)c1ccccc1 = no (0)
• CN(C)N=Nc1ccc(Cl)cc1 = yes (1)
• CC(=O)C1(c2ccccc2)CCNCC1 = no (0)
• COC(=O)c1ccc([N+](=O)[O-])c2c(NCCCN(C)C)c3ccccc3nc12 = yes (1)
• O=[N+]([O-])c1ccc2cn[nH]c2c1 = yes (1)
• O=[N+]([O-])c1ccc(N=Nc2ccc(N(CCO)CCO)cc2)c([N+](=O)[O-])c1 = yes (1)
• CCN(CCCl)CCCNc1c2ccc(Cl)cc2nc2ccc(OC)nc12 = yes (1)
• NC1CCC(N)CC1 (configuration not stated) = no (0)
• O=[N+]([O-])c1ccc2c([N+](=O)[O-])cc3ccccc3c2c1 = yes (1)
• COc1ccc(C=CC(=O)c2ccccc2)cc1 = no (0)
• CNC(=O)c1c(N(C)N=O)ncn1C = no (0)
• O=C(Nc1ccc(F)cc1)c1csc([N+](=O)[O-])c1 = yes (1)
• C=C(C)C1CCC(=C)C2C3=C(C[C@@H](C)C3=O)C(=O)C(C)=C[C@@H]12 (some centres not stated) = no (0)
• O=C(NCCCl)Sc1ncnc2nc[nH]c12 = no (0)
